target: HIV-1 RT (Human immunodeficiency virus type 1 group M subtype B); construct: HIV-1 Reverse Transcriptase serves, in the HIV-1 viral replication process, as catalyst; purchased Ambion; assay: Gel-based single nucleotide incorporation assay by HIV-1 RT (primer-template P1T1); format: biochemical; conditions: 200 μM substrate, 30 min, P1T1 125 nM
Listing of entries alongside the reported % of P + 1.

Compound: Nc1ncnc2c1ncn2[C@H]1C[C@H](O)[C@@H](COP(=O)(O)N[C@@H](COP(=O)(O)O)C(=O)O)O1 [Compound 5]
System tested: HIV-1 RT (Human immunodeficiency virus type 1 group M subtype B)
Units of measure: %
% of P + 1: 5.8
//
Compound: Nc1ncnc2c1ncn2[C@H]1C[C@H](O)[C@@H](COP(=O)(O)NCCS(=O)(=O)O)O1 [Compound 1]
System tested: HIV-1 RT (Human immunodeficiency virus type 1 group M subtype B)
Units of measure: %
% of P + 1: 4.6
//
Compound: Nc1ncnc2c1ncn2[C@H]1C[C@H](O)[C@@H](COP(=O)(O)N[C@@H](CP(=O)(O)O)C(=O)O)O1 [Compound 3]
System tested: HIV-1 RT (Human immunodeficiency virus type 1 group M subtype B)
Units of measure: %
% of P + 1: 93.7
//
Compound: Nc1ncnc2c1ncn2[C@H]1C[C@H](O)[C@@H](COP(=O)(O)N[C@@H](CS(=O)(=O)O)C(=O)O)O1 [Compound 2]
System tested: HIV-1 RT (Human immunodeficiency virus type 1 group M subtype B)
Units of measure: %
% of P + 1: 16.0
